Taken from ChEMBL document CHEMBL5126523.

For each record, write down the corresponding pIC50.
- targetOrSystem: UniProtKB P30291
- assayRemarks: Displacement of tracer 178 from WEE1 (unknown origin) incubated for 1 hr by Lantha Screen assay
Answers are plain numbers, as −log10 of the molar value.

C=CCn1c(=O)c2cnc(Nc3ccc4c(c3)OC[C@@H]3CN(C)CCN43)nc2n1-c1ccc(C(C)(C)O)cn1    8.60

In the following, a different molecule is considered.
Prompt: Can you look up pIC50 on UniProtKB P30291 for C=CCn1c(=O)c2cnc(Nc3ccc4c(c3)OC[C@@H]3C[C@@H](N(C)C)CN43)nc2n1-c1ccc(C(C)(C)O)cn1 ?
Completion: 8.32

###

- assayRemarks: Half life in overnight fasted Sprague-Dawley rat at 2 mg/kg, po via gavage measured for 0.25 to 24 hrs by LC/MS/MS analysis
- Type: ADME, organism-based
- experimentalSetup: in vivo, time 0.25-24 hrs
observationType: half-life (h)
One number for each entry, in h.

Prompt: // half-life lookup, key: C[C@@H]1COCCN1c1nc(-c2ccnn2C)c2c(n1)c(-c1ccn[nH]1)nn2C
Completion: 2.23

###

- targetOrSystem: DNA-dependent protein kinase catalytic subunit (Homo sapiens, UniProt P78527)
- Sequence (P78527 whole entry): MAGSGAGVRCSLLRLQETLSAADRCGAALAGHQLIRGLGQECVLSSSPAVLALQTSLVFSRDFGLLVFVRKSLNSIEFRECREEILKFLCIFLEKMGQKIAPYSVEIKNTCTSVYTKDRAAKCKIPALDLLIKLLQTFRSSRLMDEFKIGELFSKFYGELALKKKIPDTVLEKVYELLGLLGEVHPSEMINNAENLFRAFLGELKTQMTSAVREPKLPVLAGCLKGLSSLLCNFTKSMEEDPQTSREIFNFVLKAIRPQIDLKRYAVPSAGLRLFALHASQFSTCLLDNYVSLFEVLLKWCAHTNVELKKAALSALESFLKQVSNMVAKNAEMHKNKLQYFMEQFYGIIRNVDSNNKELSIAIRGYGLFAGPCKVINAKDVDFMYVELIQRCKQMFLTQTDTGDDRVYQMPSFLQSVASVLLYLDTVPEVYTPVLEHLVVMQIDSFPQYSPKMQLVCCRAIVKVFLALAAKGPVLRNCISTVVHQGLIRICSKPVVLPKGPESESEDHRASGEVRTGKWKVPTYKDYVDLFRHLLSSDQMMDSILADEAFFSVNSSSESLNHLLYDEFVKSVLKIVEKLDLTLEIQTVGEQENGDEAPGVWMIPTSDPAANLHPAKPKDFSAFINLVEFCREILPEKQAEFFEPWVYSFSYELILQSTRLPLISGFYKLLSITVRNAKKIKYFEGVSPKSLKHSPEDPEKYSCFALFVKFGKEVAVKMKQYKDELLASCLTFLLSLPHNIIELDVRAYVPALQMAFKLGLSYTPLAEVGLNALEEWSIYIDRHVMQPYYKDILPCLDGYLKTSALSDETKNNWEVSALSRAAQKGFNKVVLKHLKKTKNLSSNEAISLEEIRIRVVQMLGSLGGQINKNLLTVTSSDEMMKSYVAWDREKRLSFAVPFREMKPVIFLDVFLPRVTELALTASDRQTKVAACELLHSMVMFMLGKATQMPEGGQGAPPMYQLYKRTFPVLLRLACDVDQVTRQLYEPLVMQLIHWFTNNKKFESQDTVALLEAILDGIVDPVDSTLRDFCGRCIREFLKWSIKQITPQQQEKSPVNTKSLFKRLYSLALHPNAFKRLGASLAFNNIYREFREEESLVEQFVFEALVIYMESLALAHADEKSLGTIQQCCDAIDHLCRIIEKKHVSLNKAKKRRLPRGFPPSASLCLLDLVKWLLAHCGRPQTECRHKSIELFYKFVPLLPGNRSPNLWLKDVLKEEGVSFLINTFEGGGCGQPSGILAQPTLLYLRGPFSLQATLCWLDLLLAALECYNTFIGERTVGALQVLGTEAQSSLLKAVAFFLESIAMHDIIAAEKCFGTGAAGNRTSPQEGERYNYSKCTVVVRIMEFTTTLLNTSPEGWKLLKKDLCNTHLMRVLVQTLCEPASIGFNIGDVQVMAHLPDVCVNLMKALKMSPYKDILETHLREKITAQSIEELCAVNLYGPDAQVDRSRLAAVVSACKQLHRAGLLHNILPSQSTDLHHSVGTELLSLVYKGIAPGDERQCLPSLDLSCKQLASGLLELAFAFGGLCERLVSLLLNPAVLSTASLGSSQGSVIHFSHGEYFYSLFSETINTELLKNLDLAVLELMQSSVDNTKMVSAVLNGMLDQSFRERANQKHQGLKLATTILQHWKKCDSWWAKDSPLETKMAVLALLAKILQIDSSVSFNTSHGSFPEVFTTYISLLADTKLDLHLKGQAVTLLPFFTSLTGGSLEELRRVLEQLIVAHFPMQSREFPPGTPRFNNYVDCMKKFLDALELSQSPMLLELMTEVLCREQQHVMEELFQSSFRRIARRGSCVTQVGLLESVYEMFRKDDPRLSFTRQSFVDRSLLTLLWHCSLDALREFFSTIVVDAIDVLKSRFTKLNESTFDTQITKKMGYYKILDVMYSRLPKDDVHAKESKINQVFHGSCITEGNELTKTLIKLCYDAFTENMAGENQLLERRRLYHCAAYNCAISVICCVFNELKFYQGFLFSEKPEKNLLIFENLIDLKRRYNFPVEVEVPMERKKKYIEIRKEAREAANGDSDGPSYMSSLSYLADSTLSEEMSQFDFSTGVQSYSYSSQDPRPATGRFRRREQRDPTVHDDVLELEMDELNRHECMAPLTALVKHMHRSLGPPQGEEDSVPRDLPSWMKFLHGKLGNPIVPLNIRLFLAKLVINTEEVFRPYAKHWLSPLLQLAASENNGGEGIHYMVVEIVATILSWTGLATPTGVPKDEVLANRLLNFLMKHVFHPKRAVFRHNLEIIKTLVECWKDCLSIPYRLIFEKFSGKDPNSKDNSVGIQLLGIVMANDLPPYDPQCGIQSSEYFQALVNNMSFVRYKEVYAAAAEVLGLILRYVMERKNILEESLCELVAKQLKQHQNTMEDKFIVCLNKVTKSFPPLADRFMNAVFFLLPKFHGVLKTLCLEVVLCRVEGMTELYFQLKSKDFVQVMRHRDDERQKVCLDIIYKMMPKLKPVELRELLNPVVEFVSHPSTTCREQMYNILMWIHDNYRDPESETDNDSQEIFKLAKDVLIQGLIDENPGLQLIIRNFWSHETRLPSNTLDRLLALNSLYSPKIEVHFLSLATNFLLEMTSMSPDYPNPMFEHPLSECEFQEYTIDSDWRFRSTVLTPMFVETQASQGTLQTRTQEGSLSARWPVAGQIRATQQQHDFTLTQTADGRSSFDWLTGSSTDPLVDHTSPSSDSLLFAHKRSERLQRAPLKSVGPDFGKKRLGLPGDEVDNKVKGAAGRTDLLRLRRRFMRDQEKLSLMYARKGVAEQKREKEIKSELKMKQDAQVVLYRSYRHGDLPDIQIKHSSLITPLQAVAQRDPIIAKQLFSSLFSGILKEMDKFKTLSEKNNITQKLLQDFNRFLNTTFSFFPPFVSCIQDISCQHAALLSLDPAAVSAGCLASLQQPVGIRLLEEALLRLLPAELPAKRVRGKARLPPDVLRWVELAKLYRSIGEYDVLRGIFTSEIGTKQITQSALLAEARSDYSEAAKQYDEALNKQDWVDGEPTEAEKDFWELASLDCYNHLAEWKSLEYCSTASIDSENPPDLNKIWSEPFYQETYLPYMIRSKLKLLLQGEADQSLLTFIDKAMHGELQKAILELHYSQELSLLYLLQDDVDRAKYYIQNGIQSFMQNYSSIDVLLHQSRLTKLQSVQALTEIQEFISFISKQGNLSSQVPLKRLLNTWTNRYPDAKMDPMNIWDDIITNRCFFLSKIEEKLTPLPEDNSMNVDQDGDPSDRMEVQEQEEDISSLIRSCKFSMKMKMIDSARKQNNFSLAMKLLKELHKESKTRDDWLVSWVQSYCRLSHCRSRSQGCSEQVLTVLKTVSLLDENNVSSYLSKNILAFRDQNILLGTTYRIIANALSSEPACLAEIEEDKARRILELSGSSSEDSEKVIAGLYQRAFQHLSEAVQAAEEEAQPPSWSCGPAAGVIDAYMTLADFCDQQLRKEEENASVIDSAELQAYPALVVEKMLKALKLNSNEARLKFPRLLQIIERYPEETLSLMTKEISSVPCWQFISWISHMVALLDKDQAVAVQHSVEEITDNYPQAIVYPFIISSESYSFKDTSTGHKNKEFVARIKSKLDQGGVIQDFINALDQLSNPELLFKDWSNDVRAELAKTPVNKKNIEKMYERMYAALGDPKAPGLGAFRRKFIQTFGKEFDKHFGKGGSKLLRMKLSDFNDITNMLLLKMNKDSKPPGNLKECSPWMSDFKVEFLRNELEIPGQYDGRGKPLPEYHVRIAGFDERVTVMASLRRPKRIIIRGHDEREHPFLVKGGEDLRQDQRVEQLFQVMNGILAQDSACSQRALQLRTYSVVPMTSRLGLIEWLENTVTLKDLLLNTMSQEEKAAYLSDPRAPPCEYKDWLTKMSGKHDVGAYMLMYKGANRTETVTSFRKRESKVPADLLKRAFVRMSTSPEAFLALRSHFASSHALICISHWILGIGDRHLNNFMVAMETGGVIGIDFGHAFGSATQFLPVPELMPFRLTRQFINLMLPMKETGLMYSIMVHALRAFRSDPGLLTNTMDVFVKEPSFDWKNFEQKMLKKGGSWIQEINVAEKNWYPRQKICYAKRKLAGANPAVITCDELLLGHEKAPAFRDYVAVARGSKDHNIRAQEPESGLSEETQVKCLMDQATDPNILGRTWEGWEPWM
- assayRemarks: Inhibition of full-length human DNA-PK expressed in baculovirus expression system using p53 as substrate incubated for 1 hr in presence of ATP by ELISA
observationType: pIC50
Answers are plain numbers, as −log10 of the molar value.

CCc1ncc(S(=O)(=O)Nc2cc(-c3ccc4ncc5c(c4c3)C3(CCC3)C(=O)N5C)cnc2OCCCN(C)C)s1    9.00

In the following, a different molecule is considered.
Prompt: Can you look up pIC50 on DNA-dependent protein kinase catalytic subunit (Homo sapiens, UniProt P78527) for CN(C)CCCOc1ncc(-c2ccc3ncc4c(c3c2)C2(CCC2)C(=O)N4C)cc1NS(=O)(=O)C(F)(F)F ?
Completion: 9.00

###

- assayRemarks: AUC (0 to last) in BALB/c mouse at 2 mg/kg, po by LC-MS/MS analysis
- Assay type: ADME, organism-based
- Parameters: time 0 - last, dose 2 mg/kg, route po
- experimentalSetup: in vivo
observationType: AUC(0-t) (µM·h)
Give bare numbers, in µM·h.

Prompt: // AUC(0-t) lookup, key: Cc1cc2ncnn2cc1Nc1ncc2c(n1)n(N1CC3CCC(C1)O3)c(=O)n2C
Completion: 3.49

###

- assayRemarks: Half life in BALB/c nude mouse at 1 mg/kg, iv measured for 0.08 to 24 hrs by LC-MS/MS analysis
- Type: ADME, organism-based
- experimentalSetup: in vivo, time 0.08-24 hrs
observationType: half-life (h)
Give bare numbers, in h.

Prompt: // half-life lookup, key: CN1CCN(c2ccc(Nc3ncc4c(=O)n5n(c4n3)-c3cccc(n3)[C@@](C)(O)CCC/C=C\C5)cc2)CC1
Completion: 1.69

###

- targetOrSystem: Protein cereblon/Wee1-like protein kinase (Homo sapiens, UniProt P30291+Q96SW2)
- assayRemarks: PROTAC activity at CRBN/WEE1 in human […] assessed as induction of WEE1 degradation treated for 5 hrs by Western blot analysis
observationType: pEC50
Give bare numbers, as −log10 of the molar value.

Prompt: // pEC50 lookup, key: C=CCn1c(=O)c2cnc(Nc3ccc(N4CCN(CCCNc5cccc6c5C(=O)N(C5CCC(=O)NC5=O)C6=O)CC4)cc3)nc2n1-c1cccc(C(C)(C)O)n1 (stereo unspecified)
Completion: 7.00
